Data credit: ChEMBL document CHEMBL3991601

target: Mitogen-activated protein kinase kinase kinase 1 (Homo sapiens); also: in the data inactive means no Kd found up to 30 µM
Sequence (Q13233 whole entry): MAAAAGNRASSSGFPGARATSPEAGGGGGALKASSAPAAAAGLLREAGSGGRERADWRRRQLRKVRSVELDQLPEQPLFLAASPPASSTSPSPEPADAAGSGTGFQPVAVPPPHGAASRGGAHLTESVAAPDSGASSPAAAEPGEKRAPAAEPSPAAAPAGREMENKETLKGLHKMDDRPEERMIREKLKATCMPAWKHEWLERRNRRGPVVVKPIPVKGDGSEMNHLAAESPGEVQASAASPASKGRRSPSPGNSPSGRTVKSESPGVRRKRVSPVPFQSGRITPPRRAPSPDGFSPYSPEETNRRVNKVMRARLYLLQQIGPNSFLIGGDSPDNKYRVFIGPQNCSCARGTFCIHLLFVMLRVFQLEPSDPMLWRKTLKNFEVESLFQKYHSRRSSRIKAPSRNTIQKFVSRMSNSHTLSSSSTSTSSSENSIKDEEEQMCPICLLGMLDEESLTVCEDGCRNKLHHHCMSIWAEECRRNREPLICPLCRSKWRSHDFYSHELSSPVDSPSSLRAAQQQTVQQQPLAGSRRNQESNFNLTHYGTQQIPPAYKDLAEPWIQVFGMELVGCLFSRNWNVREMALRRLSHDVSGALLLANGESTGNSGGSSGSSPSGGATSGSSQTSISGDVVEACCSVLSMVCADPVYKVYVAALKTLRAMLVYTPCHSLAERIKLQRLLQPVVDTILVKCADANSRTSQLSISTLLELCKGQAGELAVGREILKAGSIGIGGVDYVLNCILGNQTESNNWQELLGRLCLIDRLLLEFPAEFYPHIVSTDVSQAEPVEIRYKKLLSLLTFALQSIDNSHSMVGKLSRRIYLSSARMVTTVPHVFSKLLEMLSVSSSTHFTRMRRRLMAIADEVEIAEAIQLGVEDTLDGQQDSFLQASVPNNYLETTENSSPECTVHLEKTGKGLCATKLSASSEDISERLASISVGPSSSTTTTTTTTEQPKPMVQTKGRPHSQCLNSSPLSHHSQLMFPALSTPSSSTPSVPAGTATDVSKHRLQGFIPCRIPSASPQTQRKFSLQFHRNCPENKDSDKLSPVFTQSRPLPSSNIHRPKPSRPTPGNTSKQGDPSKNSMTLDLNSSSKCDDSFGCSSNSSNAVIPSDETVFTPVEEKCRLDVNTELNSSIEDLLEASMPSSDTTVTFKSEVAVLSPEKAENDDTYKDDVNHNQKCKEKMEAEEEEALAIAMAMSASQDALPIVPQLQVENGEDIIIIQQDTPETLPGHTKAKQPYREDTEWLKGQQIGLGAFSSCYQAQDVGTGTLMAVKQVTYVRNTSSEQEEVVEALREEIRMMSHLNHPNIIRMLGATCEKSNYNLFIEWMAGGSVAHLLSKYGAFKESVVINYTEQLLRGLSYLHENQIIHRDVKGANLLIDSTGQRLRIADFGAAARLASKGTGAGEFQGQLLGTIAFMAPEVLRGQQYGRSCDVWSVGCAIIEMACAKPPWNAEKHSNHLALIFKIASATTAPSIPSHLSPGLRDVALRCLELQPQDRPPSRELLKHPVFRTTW
The source made the active and inactive calls.
Can you answer with just one of these options? T (active), F (inactive)

Please let me know the test result on file for COc1cccc(Nc2ncnn3ccc(CN4CC[C@@H](N)[C@H](O)C4)c23)c1 .
F

Please let me know the test result on file for C=CC(=O)Nc1cc(Nc2nccc(-c3cn(C)c4ccccc34)n2)c(OC)cc1N(C)CCN(C)C .
F

Please let me know the test result on file for C=CCN(/C=C1/C(=O)O[C@H](COC)[C@@]2(C)C1=C(O)C(=O)C1=C2[C@H](OC(C)=O)C[C@]2(C)C(=O)CC[C@@H]12)CC=C .
F

Please let me know the test result on file for CCN1CCN(Cc2ccc(Nc3ncc(F)c(-c4cc(F)c5nc(C)n(C(C)C)c5c4)n3)nc2)CC1 .
F

Please let me know the test result on file for O=c1[nH]c([C@@H]2CCCN2)nc2c1oc1ccc(Cl)cc12 .
F

Please let me know the test result on file for COc1cc(Nc2ncc(F)c(Nc3ccc4c(n3)N(COP(=O)(O)O)C(=O)C(C)(C)O4)n2)cc(OC)c1OC .
F

Please let me know the test result on file for C#Cc1cccc(Nc2ncnc3cc4c(cc23)OCCOCCOCCO4)c1 .
T

Please let me know the test result on file for CCc1cc2c(cc1N1CCC(N3CCOCC3)CC1)C(C)(C)c1[nH]c3cc(C#N)ccc3c1C2=O .
F

Please let me know the test result on file for N#CCNC(=O)c1ccc(-c2ccnc(Nc3ccc(N4CCOCC4)cc3)n2)cc1 .
F

Please let me know the test result on file for CC(C)CC(=O)Nc1[nH]nc2c1CN(C(=O)C1CCN(C)CC1)C2(C)C .
F

Please let me know the test result on file for COc1cccc2cc(-c3nc([C@H]4CC[C@H](C(=O)O)CC4)n4ncnc(N)c34)[nH]c12 .
F

Please let me know the test result on file for CCN(CCCOc1ccc2c(Nc3cc(CC(=O)Nc4cccc(F)c4)n[nH]3)ncnc2c1)CCOP(=O)(O)O .
F

Please let me know the test result on file for O=S(=O)(c1cccc2c(O)nccc12)N1CCCNCC1 [HYDROXYFASUDIL] .
F

Please let me know the test result on file for Cc1cc(Nc2nc(N[C@@H](C)c3ncc(F)cn3)ncc2Cl)n[nH]1 .
F

Please let me know the test result on file for CNC(=O)c1ccc(Nc2ncc(C(F)(F)F)c(NCc3nccnc3N(C)S(C)(=O)=O)n2)cc1 .
F

Please let me know the test result on file for C[C@]1(O)C[C@@H](c2nc(-c3ccc4ccc(-c5ccccc5)nc4c3)c3c(N)nccn32)C1 .
F

Please let me know the test result on file for O[C@H]1CC[C@H](Nc2ncc3nc(Nc4c(F)cc(F)cc4F)n([C@H]4CCOC4)c3n2)CC1 .
F
